Test system: HCT116
Assay: MTS cell proliferation assay, HCT116
Type: cell-based, human
Reported conditions: Homo sapiens, HCT-116, HCT116 colon cancer, 48 h, read-out: IC50 ± SD, in vitro cytotoxicity HCT116
Quantity measured: IC50 (µM)

[
  {
    "Molecule": "CCN(CC)C(=S)SCC1=C(CSC(=S)N(CC)CC)C(=O)c2ccccc2C1=O",
    "Quantity measured": "IC50",
    "Experimental result": 0.093
  },
  {
    "Molecule": "C=CCN(CC=C)C(=S)SCC1=C(CSC(=S)N(CC=C)CC=C)C(=O)c2ccccc2C1=O",
    "Quantity measured": "IC50",
    "Experimental result": 0.742
  },
  {
    "Molecule": "CCCN(CCC)C(=S)SCC1=C(CSC(=S)N(CCC)CCC)C(=O)c2ccccc2C1=O",
    "Quantity measured": "IC50",
    "Experimental result": 0.597
  },
  {
    "Molecule": "CN(C)C(=S)SCC1=C(CSC(=S)N(C)C)C(=O)c2ccccc2C1=O",
    "Quantity measured": "IC50",
    "Experimental result": 0.088
  },
  {
    "Molecule": "CC(C)=CC[C@@H](O)C1=CC(=O)c2c(O)ccc(O)c2C1=O [Shikonin, reference compound]",
    "Quantity measured": "IC50",
    "Experimental result": 1.06
  }
]
